Cited source for all entries: patent US11787762B2

# Experimental System: Histidine tagged HIF-2α protein containing PAS-B domain (240-350) (Homo sapiens)
# Construct: HIF-2α protein containing PAS-B domain (240-350); made in house
# Assay Protocol: HIF-2α Scintillation Proximity Assay (SPA) binding assay
# Particulars: Table 1; 50 nM HIF-2α protein, 25 nM 3H-tracer
Below, each entry is listed with its recorded IC50.
Assay Readout: IC50

• O=[N+]([O-])c1c(N2CCCc3cc(F)cc(F)c32)ccc2nonc12 = > 1000 nM
• O=S(=O)(c1ccc(N2CCCc3cc(F)cc(F)c32)c(Cl)c1C(O)C(F)(F)F)C(F)(F)F (centres unmarked) = > 1000 nM
• CS(=O)(=O)c1ccc(C2CCCc3cc(F)ccc32)c2c1[C@H](O)C(F)(F)C2 (some centres unmarked) = 100 to 1000 nM
• O=S(=O)(c1ccc(N2CCCc3cc(F)cc(F)c32)c2c1[C@H](O)[C@@H](F)C2)C(F)(F)F = > 1000 nM
• N#Cc1cc(F)cc2c1N(c1ccc(C(F)(F)F)c(F)c1CO)CCC2 = 100 to 1000 nM
• O=S(=O)(c1ccc(N2CCCc3cc(F)cc(F)c32)c2c1C(F)C(F)(F)C2)C(F)(F)F (centres unmarked) = 100 to 1000 nM
• O=S(=O)(c1ccc(N2CCC(CO)c3cc(F)cc(F)c32)c2c1[C@H](O)[C@H](F)C2)C(F)(F)F (some centres unmarked) = 100 to 1000 nM
• N#Cc1cc(F)cc2c1N(c1ccc(C(F)(F)F)c(C#N)c1Cl)CCC2 = 100 to 1000 nM
• CC1(O)c2c(S(C)(=O)=O)ccc([C@H]3CCCc4cc(F)cc(F)c43)c2CC1(F)F (some centres unmarked) = > 1000 nM
• O=S(=O)(c1ccc([C@H]2CCCc3cc(F)cc(F)c32)c2c1[C@H](O)[C@H](F)C2)C(F)(F)F = < 100 nM
• N#Cc1ccc2c(c1)N(c1ccc(S(=O)(=O)C(F)(F)F)cc1[N+](=O)[O-])CCC2 = > 1000 nM
• N#Cc1cc(F)cc2c1N(c1ccc(C(F)(F)F)c(F)c1C#N)CCC2 = 100 to 1000 nM
• N#Cc1cc(F)cc2c1N(c1cnc(C(F)(F)F)c(F)c1)CCC2 = 100 to 1000 nM
• CS(=O)(=O)c1ccc([C@H]2CCCc3cccc(C#N)c32)c2c1[C@H](O)[C@H](F)C2 = 100 to 1000 nM

----------
# Experimental System: HIF-2α (Homo sapiens, UniProt Q99814)
# Construct: host or cells: 786-O cells stably transduced with Cignal Lenti HIF Luc Reporter (only the reporter was introduced, not HIF-2α)
# Sequence (Q99814 whole entry): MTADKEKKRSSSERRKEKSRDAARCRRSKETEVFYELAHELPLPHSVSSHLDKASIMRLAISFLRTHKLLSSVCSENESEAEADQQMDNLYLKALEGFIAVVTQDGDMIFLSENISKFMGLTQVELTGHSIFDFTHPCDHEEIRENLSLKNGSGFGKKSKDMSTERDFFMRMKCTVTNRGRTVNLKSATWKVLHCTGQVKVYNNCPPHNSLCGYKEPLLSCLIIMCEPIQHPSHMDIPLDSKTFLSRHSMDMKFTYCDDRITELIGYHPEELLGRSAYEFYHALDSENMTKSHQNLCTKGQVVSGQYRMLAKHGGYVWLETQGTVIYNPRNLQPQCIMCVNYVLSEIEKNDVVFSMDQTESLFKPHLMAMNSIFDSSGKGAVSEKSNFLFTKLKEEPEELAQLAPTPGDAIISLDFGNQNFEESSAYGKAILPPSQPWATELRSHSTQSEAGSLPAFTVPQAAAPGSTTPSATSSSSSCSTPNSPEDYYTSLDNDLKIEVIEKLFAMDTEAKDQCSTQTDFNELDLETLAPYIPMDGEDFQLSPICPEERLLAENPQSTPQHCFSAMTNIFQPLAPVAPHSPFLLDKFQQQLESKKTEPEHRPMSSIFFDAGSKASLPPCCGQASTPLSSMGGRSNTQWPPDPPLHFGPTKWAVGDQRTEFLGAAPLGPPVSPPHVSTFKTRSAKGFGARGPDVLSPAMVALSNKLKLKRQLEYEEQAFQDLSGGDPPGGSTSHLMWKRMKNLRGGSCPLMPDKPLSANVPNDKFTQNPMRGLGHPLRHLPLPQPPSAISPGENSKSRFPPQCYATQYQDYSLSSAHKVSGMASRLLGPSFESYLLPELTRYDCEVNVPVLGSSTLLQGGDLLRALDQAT
# Assay Protocol: HIF-2α luciferase reporter assay in HIF-Luc-786-O cells
# Type: cell-based
# Particulars: Table 1, 20 hours incubation
Assay Readout: IC50

* CS(=O)(=O)c1ccc([C@H]2CCCc3cc(F)cc(F)c32)c2c1[C@H](O)[C@H](F)C2 (stereo in doubt) [Example 99] | 100 to 1000 nM
* O=[N+]([O-])c1cc(S(=O)(=O)C(F)(F)F)ccc1N1CCOc2cc(F)cc(F)c21 | > 1000 nM
* O=[N+]([O-])c1cc(S(=O)(=O)C(F)(F)F)ccc1N1CCCc2cc(Cl)cc(F)c21 | > 1000 nM
* O=S1(=O)c2ccc(C3CCCc4cc(F)cc(F)c43)c(Cl)c2C(O)C1(F)F (stereo not shown) | > 1000 nM
* O=Cc1c(S(=O)(=O)C(F)(F)F)ccc(N2CCCc3cc(F)cc(F)c32)c1Cl [Example 69] | > 1000 nM
* N#Cc1cc(F)cc2c1N(c1ccc(C(F)(F)F)c(F)c1C#N)CCC2 | 100 to 1000 nM
* CS(=O)(=O)c1ccc(N2CCCc3cc(F)cc(C#N)c32)c(Cl)c1C#N | 100 to 1000 nM
* CS(=O)(=O)c1ccc([C@@H]2CCCc3cc(F)cc(C#N)c32)c2c1[C@H](O)[C@@H](F)CC2 | > 1000 nM
* N#Cc1cc(F)cc2c1N(c1ccc(C(F)(F)F)c(F)c1C#N)CCC2O (stereo not shown) | 100 to 1000 nM
* N#Cc1cc(F)cc2c1N(c1ccc(C(F)(F)F)c(C#N)c1Cl)CCC2 | 100 to 1000 nM
* N#Cc1cc(S(=O)(=O)C(F)(F)F)ccc1N1CCCc2cc(F)cc(F)c21 | > 1000 nM
* N#Cc1cc(C(F)(F)F)ncc1N1CCCc2cc(F)cc(F)c21 | > 1000 nM
* CC[C@H]1CCN(c2ccc(S(=O)(=O)C(F)(F)F)c3c2C[C@@H](F)[C@H]3O)c2c(F)cc(F)cc21 | 100 to 1000 nM

----------
# Experimental System: Histidine tagged HIF-2α protein containing PAS-B domain (240-350) (Homo sapiens, UniProt Q99814)
# Construct: HIF-2α protein containing PAS-B domain (240-350); made in house
# Assay Protocol: HIF-2α Scintillation Proximity Assay (SPA) binding assay
# Particulars: Table 1; 50 nM HIF-2α protein, 25 nM 3H-tracer
Assay Readout: IC50

- N#Cc1cc(F)cc2c1N(c1cnc(C(F)(F)F)c(F)c1Cl)CCC2 [Example 26]: 0.1 to 1 µM
- COC(=O)c1c(S(=O)(=O)C(F)(F)F)ccc(N2CCCc3cc(F)cc(F)c32)c1Cl [Example 85]: > 1 µM
- N#Cc1cc(S(=O)(=O)C(F)(F)F)ccc1N1CCCc2cc(F)cc(F)c21 [Example 80]: > 1 µM
- CS(=O)(=O)c1ccc(N2CCCc3cc(F)cc(C#N)c32)c(Cl)c1C#N [Example 11]: 0.1 to 1 µM
- CS(=O)(=O)c1ccc(N2CCCc3cc(F)cc(C#N)c32)c2c1[C@H](O)[C@H](F)C2 [Example 41]: 0.1 to 1 µM

----------
# Experimental System: HIF-2α (Homo sapiens)
# Construct: host or cells: 786-O cells stably transduced with Cignal Lenti HIF Luc Reporter (only the reporter was introduced, not HIF-2α)
# Assay Protocol: HIF-2α luciferase reporter assay in HIF-Luc-786-O cells
# Format: cell-based
# Particulars: Table 1, 20 hours incubation
We begin with a simple list: items and their reported IC50.
Assay Readout: IC50

• N#Cc1cc(F)cc2c1[C@@H](c1ccc(S(=O)(=O)C(F)(F)F)c3c1C[C@@H](F)[C@H]3O)CCC2 = < 0.1 µM
• O=[N+]([O-])c1cc(C(O)C(F)(F)F)ccc1N1CCCc2cc(F)cc(F)c21 (centres unmarked) = > 1 µM
• O=S(=O)(c1ccc(N2CCCc3cc(F)cc(F)c32)c2c1[C@H](O)[C@H](F)C2)C(F)(F)F = 0.1 to 1 µM
• CS(=O)(=O)c1ccc(C2CCCc3cc(F)cc(F)c32)c2cccnc12 (centres unmarked) = > 1 µM
• N#Cc1cc(N2CCCc3cc(F)cc(C#N)c32)ccc1C(F)(F)F = > 1 µM
• CS(=O)(=O)c1ccc([C@@H]2CCCc3cc(F)cc(F)c32)c2c1[C@H](O)[C@H](F)C2 = > 1 µM
• CC[C@@H]1CCN(c2ccc(S(=O)(=O)C(F)(F)F)c3c2C[C@@H](F)[C@H]3O)c2c(F)cc(F)cc21 = > 1 µM
• N#Cc1cc(F)cc2c1N(c1ccc(C(F)(F)F)c(F)c1CO)CCC2 = > 1 µM
• N#Cc1cc(F)cc2c1N(c1cnc(C(F)(F)F)c(F)c1Cl)CCC2 = 0.1 to 1 µM
• O=S(=O)(c1ccc([C@H]2CCOc3cc(F)cc(F)c32)c2c1[C@H](O)[C@H](F)C2)C(F)(F)F = 0.1 to 1 µM
• CS(=O)(=O)c1ccc([C@H]2CCCc3cc(F)cc(C#N)c32)c2c1[C@H](O)[C@H](F)CC2 = 0.1 to 1 µM
• CS(=O)(=O)c1ccc(N2CCCc3cc(F)cc(F)c32)c(C(F)F)c1C#N = > 1 µM
• N#Cc1cc(F)cc2c1N(c1cnc(C(F)(F)F)c(F)c1)CCC2 = 0.1 to 1 µM
• O=S(=O)(c1ccc(N2CCCc3cc(F)cc(F)c32)c(Cl)c1C(O)C(F)(F)F)C(F)(F)F (centres unmarked) = > 1 µM
